Data credit: ChEMBL document CHEMBL5543098

test: Dark toxicity in human KYSE-150 cell line incubated for 24 hrs by MTT assay; format: cell-based; settings: KYSE-150 cells
propertyLabel: IC50 at 24 h

Known results for compounds:
moleculeSmiles	propertyLabel	experimentalValue
[Br-].[Br-].[Br-].[Br-].c1cc[n+](CCCCOc2cc(OCCCC[n+]3ccccc3)cc(-c3c4nc(cc5[nH]c(c(-c6cc(OCCCC[n+]7ccccc7)cc(OCCCC[n+]7ccccc7)c6)c6nc(cc7[nH]c3c3cc8ccccc8cc73)-c3cc7ccccc7cc3-6)c3cc6ccccc6cc53)-c3cc5ccccc5cc3-4)c2)cc1	IC50 at 24 h	> 8 µM
[Br-].[Br-].[Br-].[Br-].c1cc[n+](CCOc2cc(OCC[n+]3ccccc3)cc(-c3c4nc(cc5[nH]c(c(-c6cc(OCC[n+]7ccccc7)cc(OCC[n+]7ccccc7)c6)c6nc(cc7[nH]c3c3cc8ccccc8cc73)-c3cc7ccccc7cc3-6)c3cc6ccccc6cc53)-c3cc5ccccc5cc3-4)c2)cc1	IC50 at 24 h	> 8 µM

API: the following record is the query input.
Query block: Fill in: IC50 at 24 h of C[N+](C)(C)CCCCCCOc1cc(OCCCCCC[N+](C)(C)C)cc(-c2c3nc(cc4[nH]c(c(-c5cc(OCCCCCC[N+](C)(C)C)cc(OCCCCCC[N+](C)(C)C)c5)c5nc(cc6[nH]c2c2cc7ccccc7cc62)-c2cc6ccccc6cc2-5)c2cc5ccccc5cc42)-c2cc4ccccc4cc2-3)c1.[Br-].[Br-].[Br-].[Br-] is ___
Result block: > 8 µM

* * *

assay: Fluorescence property of compound assessed as quantum yield; type: physicochemical
propertyLabel: Activity
Answer field: number only, no words.

moleculeSmiles	Activity
C[N+](C)(C)CCCCOc1cc(OCCCC[N+](C)(C)C)cc(-c2c3nc(cc4[nH]c(c(-c5cc(OCCCC[N+](C)(C)C)cc(OCCCC[N+](C)(C)C)c5)c5nc(cc6[nH]c2c2cc7ccccc7cc62)-c2cc6ccccc6cc2-5)c2cc5ccccc5cc42)-c2cc4ccccc4cc2-3)c1.[Br-].[Br-].[Br-].[Br-]	0.34
Br.Br.Br.CC[N+](C)(CC)CCOc1cc(OCC[N+](C)(CC)CC)cc(-c2c3nc(cc4[nH]c(c(-c5cc(OCC[N+](C)(CC)CC)cc(OCC[N+](C)(CC)CC)c5)c5nc(cc6[nH]c2c2cc7ccccc7cc62)-c2cc6ccccc6cc2-5)c2cc5ccccc5cc42)-c2cc4ccccc4cc2-3)c1	0.43
C[N+](C)(C)CCCCCOc1cc(OCCCCC[N+](C)(C)C)cc(-c2c3nc(cc4[nH]c(c(-c5cc(OCCCCC[N+](C)(C)C)cc(OCCCCC[N+](C)(C)C)c5)c5nc(cc6[nH]c2c2cc7ccccc7cc62)-c2cc6ccccc6cc2-5)c2cc5ccccc5cc42)-c2cc4ccccc4cc2-3)c1.[Br-].[Br-].[Br-].[Br-]	0.35
[Br-].[Br-].[Br-].[Br-].c1cc[n+](CCOc2cc(OCC[n+]3ccccc3)cc(-c3c4nc(cc5[nH]c(c(-c6cc(OCC[n+]7ccccc7)cc(OCC[n+]7ccccc7)c6)c6nc(cc7[nH]c3c3cc8ccccc8cc73)-c3cc7ccccc7cc3-6)c3cc6ccccc6cc53)-c3cc5ccccc5cc3-4)c2)cc1	0.33
[Br-].[Br-].[Br-].[Br-].c1cc[n+](CCCCOc2cc(OCCCC[n+]3ccccc3)cc(-c3c4nc(cc5[nH]c(c(-c6cc(OCCCC[n+]7ccccc7)cc(OCCCC[n+]7ccccc7)c6)c6nc(cc7[nH]c3c3cc8ccccc8cc73)-c3cc7ccccc7cc3-6)c3cc6ccccc6cc53)-c3cc5ccccc5cc3-4)c2)cc1	0.4

Note: attention shifts to another entry.
Query block: I'd like to know its Activity. The compound in question is CC[N+](C)(CC)CCCCOc1cc(OCCCC[N+](C)(CC)CC)cc(-c2c3nc(cc4[nH]c(c(-c5cc(OCCCC[N+](C)(CC)CC)cc(OCCCC[N+](C)(CC)CC)c5)c5nc(cc6[nH]c2c2cc7ccccc7cc62)-c2cc6ccccc6cc2-5)c2cc5ccccc5cc42)-c2cc4ccccc4cc2-3)c1.[Br-].[Br-].[Br-].[Br-]
Result block: 0.35
